test system: UACC-62; assay: NCI tumour cell line growth inhibition, 48 h
Calls of active or inactive are those of the source. Rule as the data show it: active = GI50 up to about 1.1 µM and inactive = higher.
recorded-endpoint: GI50

// below: answered compounds
CN1CN(c2ccccc2)C2(CCN(CCc3csc4ccccc34)CC2)C1=O	19.9 µM (inactive)
O=C(O)C(Cc1ccccc1)N1C(=O)N/C(=C\c2ccc(F)cc2)C1=O (stereo not given)	36.7 µM (inactive)

Prompt: Which measured GI50 value corresponds to C[C@@H]1C[C@@H]2OC(=O)[C@]3(C)[C@H]2[C@@H](OC3(C)O)[C@]2(C)C(=O)C=C[C@@H]12 (stereo not given in full) [TENULIN] ?
Completion: 16.8 µM (inactive)

Prompt: Which measured GI50 value corresponds to O/N=C1\CC2(N3CCOCC3)CCC1(c1ccccc1)CC2 ?
Completion: > 100 µM (inactive)

Prompt: Which measured GI50 value corresponds to O=S(=O)(O)c1ccc([Se][Se]c2ccc(S(=O)(=O)O)cc2)cc1 ?
Completion: > 100 µM (inactive)
